Parameter folding stability dG unfold: see the listing below.
Experiment: folding stability dG unfold from trypsin proteolysis; higher = more stable
Express it in kcal/mol; write the number only.

Below: 2 sequences and their reported folding stability dG unfold.
{"residue-string": "SAGGSAGGSAGAEELAKKLKELGFEVKVEKNEDGSLTLTVKFKPKPKPKKVVTKDGKEVKSAGGSAGGSAGG [r17_503_TrROS_Hall]", "folding stability dG unfold / kcal/mol": 0.579}
{"residue-string": "SAGGSAGPEITPPVVVVTFTFKFPDGKTIEIPTTDLEEGEKEIEKIKKPLLEKKNIELVKVTTKPVSAGGSA [r15_140_JUSTAS]", "folding stability dG unfold / kcal/mol": -0.607}

Now let's try a different one.
Sure, the documented folding stability dG unfold for SAGGSAGGSAGGGSMTLELPLPEWSEEEIEALAEELKKKGLKVKEIERDPESDVVRITVESAGGSAGGSAGG [r7_906_JUSTAS] is 1.79

* * *

Test: folding stability dG unfold (combined trypsin and chymotrypsin); higher = more stable
Parameter folding stability dG unfold: see the listing below.
Express it in kcal/mol; write the number only.

Below: 2 sequences and their reported folding stability dG unfold.
{"residue-string": "SGMVEVKVTVPPGPATLTATPSDGSTYSKSIPANSEVTFTFPVPASLPSSTTITFTLTFPDTGTTTTTSVSA [r9_275_JUSTAS]", "folding stability dG unfold, kcal/mol": 1.28}
{"residue-string": "SAGGSAGGSMTIVNPGTPETLAATVKETIKAGKKVKVIYVSPDNPEPVAEAEVEGTAEELEKESAGGSAGGS [r12_241_TrMRF]", "folding stability dG unfold, kcal/mol": -0.49}

Sure, the documented folding stability dG unfold for SAGGSAGGSDPPVVTVEVKEETLPNGEKIYIVTVTREDGTTKTLKFPASTSEEEIKEKVEKLLSAGGSAGGS [r12_1019_JUSTAS] is 4.17

Sure, the documented folding stability dG unfold for SAKLIRDLLRDHGFPIKNIDVQKNPNGKTYISIEIKMYTPEYKNDEGRPKPRPVEMTATFPADDLLDALSAG [r14_16_TrROS] is 0.676

Sure, the documented folding stability dG unfold for SAGAVEKLRKELEELGYEVELEEVEDEETGKTYFILRIRNPDGEIYEIKVDKKTGEIVEIFKVDNLEELSAG [r5_938_TrROS_Hall] is 4.14

Sure, the documented folding stability dG unfold for SAGGSAGGSAGSMSVTLSTTVEVTVEPLPDYTIVTVTTTTTFPDGSTTTTVTTTPVPPDLGSAGGSAGGSAG [r3_330_JUSTAS] is 1.68

Sure, the documented folding stability dG unfold for SGPALEILRAASEEEGVPVLAEVVPDADGNPVIPAVVWSPEDIEAGELPGEVKEAPITVDGKTYRVVLFASA [r9_489_TrMRF] is -0.0573

* * *

Assay: folding stability dG unfold from trypsin proteolysis; higher = more stable
Parameter folding stability dG unfold: see the listing below.
Express it in kcal/mol; write the number only.

{"residue-string": "MEPPPVVVLEIEIEVPAEDEELRNMTAEELAARLAEELEALPGLKVVSVEVVEVEERPDGTLRVRIRVTIES [r1_484_TrROS_Hall]", "observed-value": 3.69}
{"residue-string": "SAGGSAGGSDEEVEVTLYPVDPSAPDDTVYYAEVTFPNGLVARYRFRKKDGKVEGELVEVKPASAGGSAGGS [r12_1049_TrMRF]", "observed-value": 1.65}
{"residue-string": "SAGGSAALVLSREEFDGEVLLTLRDPETGEELLARLTYVPEENLVRLETTFPDGSTTTSVLPASALSAGGSA [r15_1055_JUSTAS]", "observed-value": 1.79}

Sure, the documented folding stability dG unfold for SAGGSAGGSAGGFRIKITEIWPISMEMRKPDPENGKWKEQPMTIMIIRIKIENLPPGAKISAGGSAGGSAGG [r17_530_TrROS] is 2.54

Sure, the documented folding stability dG unfold for SAGGMPVTTTPRTVELPDRRVEVIDRTFPNGPPRTTVVVRDPAGNLVATREFTGPEWEEWLRAEGALLSAGG [r19_90_JUSTAS] is -0.606

Sure, the documented folding stability dG unfold for SAMDIEIEPTEGMMEIKLPGKEIHIMQHPNYMHIQIKYPEGEPVSIPIDPNSPPEDMIDNLLKLLEKAGSAG [r14_618_TrROS] is 0.425

Sure, the documented folding stability dG unfold for SAGGSAGGSAGMEFEVLEVIPPELLAEGGEITVGLPDGERLLVRVSPDGGVKEVRLLPPESAGGSAGGSAGG [r17_2_TrMRF] is 0.811

Sure, the documented folding stability dG unfold for SPKIHIFIKGSIEEAVDFIRKFFPGLPIHVFDDPEQAEERAKNGDIVIAIGDEEYANRYAKKYNVPVIYISA [r9_380_TrROS] is 2.52

Sure, the documented folding stability dG unfold for SAGGSAGGSGMMLKIEIPVEDPGSEEKAKKIAEELAKKLGLSPKEVKIKIKVIPKLPPEEILNSAGGSAGGS [r12_1066_JUSTAS] is 0.471

Sure, the documented folding stability dG unfold for SAGGSAGGSAGDIDPEDDIFYLTVRLKDGVPFVLPVRYDDIPFIPPEFVEEATFHKPKDISAGGSAGGSAGG [r11_779_TrMRF] is 0.365

Recorded values, source the supplement of paper PMC12764529.
